tested on: LOX IMVI melanoma; assay: NCI tumour cell line growth inhibition, 48 h; in the data active = GI50 below about 0.43 µM; inactive = the rest
Possible outcomes: 1 (active), 0 (inactive)

>>> qualitative_label("CCc1c2c(nc3cc4c(cc13)OCO4)-c1cc3c(c(=O)n1C2)COC(=O)[C@]3(O)CC")
1
>>> qualitative_label("CNC(=O)c1ccccc1CC1(O)c2ccccc2Oc2ccccc21")
0
>>> qualitative_label("CN1CCN(Cc2ccc(C(=O)Nc3cncc(C#Cc4cnc(N)c5ccccc45)c3)cc2C(F)(F)F)CC1")
0

* * *

test system: A549 NSCLC; test: NCI tumour cell line growth inhibition, 48 h
result type: TGI

>>> meas_value("Cc1cccc(N2C(=O)C3ON(C(C(N)=O)c4ccccc4)C(c4c5ccccc5c(Cl)c5ccccc45)C3C2=O)c1C (configuration not stated)")
"48.5 µM"
>>> meas_value("Cn1cc(NC(=O)c2cc(NC(=O)CCCCCCCCCCC(=O)Nc3cc(C(=O)Nc4cc(C(=O)NCCC(=N)N)n(C)c4)n(C)c3)cn2C)cc1C(=O)NCCC(=N)N")
"> 100 µM"
>>> meas_value("Nc1n[nH]c2ccc([C@@H]3Nc4ccc5[nH]ncc5c4[C@H]4[C@H]5CCC(C5)[C@H]43)cc12")
"> 100 µM"
>>> meas_value("O=C(c1cccs1)c1c(C(F)(F)F)n([O-])c2ccccc2[n+]1=O")
"3.78 µM"
>>> meas_value("CC(C)(C)c1cc(O)c(O)c(C(C)(C)C)c1")
"12.2 µM"
>>> meas_value("N#CC1=C(N)OC2=C(CSc3ccccc32)C1c1ccc(Br)cc1 (configuration not stated)")
"27.2 µM"
>>> meas_value("CCN1CCN(c2nc(NCCCNc3ccnc4cc(Cl)ccc34)c3ccccc3n2)CC1")
"11.9 µM"
>>> meas_value("Cc1ccc2c(c1)nc(N)n[n+]2[O-]")
"> 100 µM"
>>> meas_value("Cc1ccc(-c2c(N)nc(NC#N)nc2CCC(=O)Nc2ccccc2[N+](=O)[O-])cc1")
"> 100 µM"
>>> meas_value("N#CCCN(c1ccc(C=Nc2cccc([N+](=O)[O-])c2)cc1)S(=O)(=O)c1ccccc1")
"> 100 µM"
>>> meas_value("COc1ccc(-c2nn(-c3cccc(Cl)c3)cc2C2CC(c3ccccc3)=NN2C(C)=O)cc1 (configuration not stated)")
"> 100 µM"
>>> meas_value("CC(C)CC(N)C(=O)OCN1C(=O)C2C3C=CC(C2C1=O)C1C2C(=O)N(COC(=O)C(N)CC(C)C)C(=O)C2C31 (configuration not stated)")
"> 100 µM"
>>> meas_value("Oc1ccccc1C(c1cc2c(cc1O)OCO2)N1CCOCC1 (configuration not stated)")
"57.6 µM"
>>> meas_value("C1COCCN1.C1COCCN1.N.N.[Cl-].[Pt+2]")
"> 100 µM"
>>> meas_value("COc1ccc(NC(=O)Nc2n[nH]c3ccccc23)cc1")
"> 100 µM"
>>> meas_value("c1cc2nnc1SCCSCCSc1ccc(nn1)SCCSCCS2")
"> 100 µM"
>>> meas_value("C=C1CCC2C(/C=C(\\C)CCC1O)OC(=O)C2C (configuration not stated)")
"> 100 µM"
>>> meas_value("COC1(C)CC2N(C(=O)c3ccccc3)N=C(c3ccccc3)CC2(C)O1 (configuration not stated)")
"> 100 µM"
>>> meas_value("CC(=O)OCC1OC(O[C@@H]2C[C@H]3C(C)(C)[C@H](OC(C)=O)CC[C@]3(C)[C@H]3CCC4=C([C@@H](C)C[C@@H](O)[C@H](O)C(C)(C)O)CC[C@@]4(C)[C@@]32C)C(O)C(O)C1O (some centres not stated)")
"33.3 µM"
>>> meas_value("Cc1cc([C@@H](C)Nc2ccccc2C(=O)O)c2nc(N3CCOCC3)cc(=O)n2c1")
"> 10 µM"
>>> meas_value("C[C@@H]1CC[C@H]2C(COCC3=C(C(F)(F)F)O[C@@H]4O[C@@]5(C)CC[C@H]6[C@H](C)CC[C@@H]3[C@@]46OO5)=C(C(F)(F)F)O[C@@H]3O[C@@]4(C)CC[C@@H]1[C@]32OO4")
"> 100 µM"
>>> meas_value("C#CCNC(=O)NC(CCCNC(=O)OCc1ccccc1)C(=O)OCc1ccccc1 (configuration not stated)")
"> 100 µM"
>>> meas_value("N#Cc1c(-c2cccs2)c2c(=S)[nH]c(=S)[nH]c2[nH]c1=S")
"> 100 µM"
>>> meas_value("COc1ccc(C(=O)Nc2ncc(Cc3ccc(Cl)cc3)s2)cc1")
"> 100 µM"
>>> meas_value("CCCCN(CC)c1nc(C)nc2c1c(C)c(C)n2-c1c(C)cc(C)cc1C")
"30.2 µM"
>>> meas_value("Nc1nc(Cl)cc(NCC2(CO)CC(CCc3ccccc3)C2)n1 (configuration not stated)")
"> 100 µM"
>>> meas_value("N#CC1(c2nc3ccccc3o2)C(=O)C(=O)N(C2C3CC4CC(C3)CC2C4)C(=O)C1=O (configuration not stated)")
"> 100 µM"
>>> meas_value("O=C1CC(O)c2c1csc2Br (configuration not stated)")
"> 100 µM"
>>> meas_value("O=C(Nc1nc2ccccc2s1)OCC(F)(F)F")
"> 100 µM"
>>> meas_value("NC(N)=N/N=C(/c1ccccc1)c1ccc(F)cc1")
"> 34.6 µM"
>>> meas_value("COc1cc(C(=O)NC2c3ccccc3-c3ccccc32)c(N)cc1OCc1ccccc1")
"> 100 µM"
>>> meas_value("O=C(Cc1nc2ccc(C(=O)c3ccccc3)cc2[nH]c1=O)C(=O)Nc1ccc(Br)cc1")
"> 100 µM"
>>> meas_value("Cc1c(Cl)ccc2c(=O)c3cccc(CC(=O)O)c3oc12")
"> 100 µM"
>>> meas_value("CSC1=NC=CCN1C")
"> 100 µM"
>>> meas_value("Cc1c(S(=O)(=O)c2ccccc2)c(N)n(Cc2ccccc2)c1C")
"> 100 µM"
>>> meas_value("CC(C)(C)OC(=O)n1cc(CNC(=S)Nc2ccccc2)c2ccccc21")
"33.1 µM"
>>> meas_value("CCCCc1c(O)nc(Nc2nc3ccccc3[nH]2)[nH]c1=O")
"> 100 µM"
